biological target: Bromodomain adjacent to zinc finger domain protein 2B (Homo sapiens) (UniProt Q9UIF8); test: qHTS Assay for Inhibitors of BAZ2B; conditions: AlphaScreen BAZ2B-H3K14Ac peptide displacement; series mostly up to 114 µM; note: nearly all actives have a fitted effect of over 60% in size
Sequence (Q9UIF8 whole entry, looked up, the tested form may be a part): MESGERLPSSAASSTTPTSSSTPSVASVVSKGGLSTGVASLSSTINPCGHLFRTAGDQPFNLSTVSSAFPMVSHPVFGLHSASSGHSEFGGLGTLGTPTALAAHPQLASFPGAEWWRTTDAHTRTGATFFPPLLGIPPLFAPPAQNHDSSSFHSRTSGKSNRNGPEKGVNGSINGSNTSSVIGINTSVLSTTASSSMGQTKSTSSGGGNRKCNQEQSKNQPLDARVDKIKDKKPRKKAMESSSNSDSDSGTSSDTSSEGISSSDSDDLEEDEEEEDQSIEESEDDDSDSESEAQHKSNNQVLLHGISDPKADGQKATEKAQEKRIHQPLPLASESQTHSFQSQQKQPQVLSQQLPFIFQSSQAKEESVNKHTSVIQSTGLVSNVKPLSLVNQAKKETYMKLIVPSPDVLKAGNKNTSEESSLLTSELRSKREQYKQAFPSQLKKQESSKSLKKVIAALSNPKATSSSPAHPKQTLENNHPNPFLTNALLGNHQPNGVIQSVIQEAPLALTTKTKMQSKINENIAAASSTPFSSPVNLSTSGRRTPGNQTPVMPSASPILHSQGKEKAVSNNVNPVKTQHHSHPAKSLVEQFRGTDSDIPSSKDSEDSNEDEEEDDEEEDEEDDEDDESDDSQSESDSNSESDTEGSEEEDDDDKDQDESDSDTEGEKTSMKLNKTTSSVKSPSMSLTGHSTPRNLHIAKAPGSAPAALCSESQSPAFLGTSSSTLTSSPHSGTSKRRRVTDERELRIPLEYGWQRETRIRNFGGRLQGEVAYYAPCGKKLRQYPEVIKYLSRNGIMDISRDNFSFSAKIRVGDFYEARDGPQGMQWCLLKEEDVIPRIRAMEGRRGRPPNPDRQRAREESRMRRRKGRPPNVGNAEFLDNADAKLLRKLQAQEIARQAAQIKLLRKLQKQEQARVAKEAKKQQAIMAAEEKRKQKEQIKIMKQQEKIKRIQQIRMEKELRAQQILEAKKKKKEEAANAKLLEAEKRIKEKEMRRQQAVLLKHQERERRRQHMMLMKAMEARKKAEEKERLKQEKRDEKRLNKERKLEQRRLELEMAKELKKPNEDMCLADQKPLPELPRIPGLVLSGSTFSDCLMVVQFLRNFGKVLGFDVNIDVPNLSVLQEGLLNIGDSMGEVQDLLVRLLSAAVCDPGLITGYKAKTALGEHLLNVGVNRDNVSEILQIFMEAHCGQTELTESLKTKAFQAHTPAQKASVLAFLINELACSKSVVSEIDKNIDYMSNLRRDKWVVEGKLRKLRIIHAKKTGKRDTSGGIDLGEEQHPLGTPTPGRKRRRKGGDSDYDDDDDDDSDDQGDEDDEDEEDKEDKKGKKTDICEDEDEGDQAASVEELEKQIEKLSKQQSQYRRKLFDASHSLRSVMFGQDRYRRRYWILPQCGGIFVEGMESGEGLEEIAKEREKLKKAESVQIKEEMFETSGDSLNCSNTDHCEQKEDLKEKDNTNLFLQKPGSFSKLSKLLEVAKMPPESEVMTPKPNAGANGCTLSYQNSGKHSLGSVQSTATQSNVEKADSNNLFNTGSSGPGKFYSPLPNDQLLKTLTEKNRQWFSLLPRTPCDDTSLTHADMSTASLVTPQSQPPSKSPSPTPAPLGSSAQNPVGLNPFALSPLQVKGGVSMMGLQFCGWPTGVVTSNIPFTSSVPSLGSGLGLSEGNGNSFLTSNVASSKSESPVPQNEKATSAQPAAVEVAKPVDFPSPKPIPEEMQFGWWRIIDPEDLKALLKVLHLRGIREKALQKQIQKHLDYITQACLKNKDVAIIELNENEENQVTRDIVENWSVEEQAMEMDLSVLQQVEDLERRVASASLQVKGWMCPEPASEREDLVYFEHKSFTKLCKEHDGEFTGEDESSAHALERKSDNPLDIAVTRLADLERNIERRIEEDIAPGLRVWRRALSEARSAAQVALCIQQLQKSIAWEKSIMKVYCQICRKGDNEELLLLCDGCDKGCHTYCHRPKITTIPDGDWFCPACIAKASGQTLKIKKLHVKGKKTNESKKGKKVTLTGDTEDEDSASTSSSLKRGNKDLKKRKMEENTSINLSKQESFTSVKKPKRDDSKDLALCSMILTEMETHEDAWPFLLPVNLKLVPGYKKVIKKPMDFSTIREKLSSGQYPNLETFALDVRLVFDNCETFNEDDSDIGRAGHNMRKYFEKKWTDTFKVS
Among all 360,000 compounds or so, about 16,000 (4.4%) were called active. Not shown: some 9% with an inconclusive outcome. Calls come from the whole dose curve; as a rule, active = well fitted inhibition curve with a large enough effect; inconclusive = small, poorly fitted or top-dose-only effect; inactive = no such curve, though single readings can be large or run the other way. The sample holds actives, similar compounds and a random draw of the others, so the mix is not that of the screen.
Write down one outcome, taken from True (active), False (inactive)

Solved entries (count: 8):
INSERT INTO assay_data (compound, group_label) VALUES
  ('CC(=O)c1cccc(NC(=O)c2nc(-c3ccccc3)n(-c3cccc(C)c3)n2)c1', 'False'),
  ('Cc1cc(Nc2ccc(C(=O)N3CCCCC3)cc2)c2cccc(C)c2n1', 'False'),
  ('COc1cccc(N2CCN(S(=O)(=O)c3cc(Br)cc4c3N(C(=O)C3CC3)CC4)CC2)c1', 'False'),
  ('O=C(CNC(=O)C1COc2ccccc2O1)N/N=C/c1cc(Br)c(O)c(Br)c1 (stereo not drawn)', 'False'),
  ('Cc1ccc(-c2nn(CCC(=O)Nc3ccc(Cl)c(Cl)c3)c(=O)c3ccccc23)cc1', 'False'),
  ('O=C(Nc1ccc2nc(SCCOc3ccccc3)sc2c1)c1ccco1', 'False'),
  ('CCOc1cccc(CC(=O)N2CCc3c([nH]c4ccccc34)C2c2ccc(OC)cc2)c1OCC (stereo not drawn)', 'False'),
  ('C#CCOCCOCCOCCNc1nc(N2CCN(C(=O)[C@H](CCCCN)n3cc(CCC(=O)O)nn3)CC2)nc(N2CCN(C(=O)[C@H](CCCCN)n3cc(CC(C)O)nn3)CC2)n1 (stereo partly drawn)', 'False');

Could you now look at the following compound, please?
// query Fill in: this test's call for Cc1c(C(=O)NCc2ccccc2Br)oc2ccc3c(c12)C(=O)CC(C)(C)O3 is ___
// result False

====

Biological target: Bromodomain adjacent to zinc finger domain protein 2B (Homo sapiens) (UniProt Q9UIF8)
Assay: qHTS Assay for Inhibitors of BAZ2B; note: nearly all actives have a fitted effect of over 60% in size
Details: AlphaScreen BAZ2B-H3K14Ac peptide displacement; series mostly up to 114 µM
From the text: BAZ2B (bromodomain adjacent to zinc finger domain, 2B) belongs to a family of ubiquitously expressed bromodomain containing proteins, which biological function has not yet been elucidated. […] Yasgar, et al. Compound Management for Quantitative High-Throughput Screening. […] Inglese, et al. Quantitative high-throughput screening: a titration-based approach that efficiently identifies biological activities in large chemical libraries. […]
Hit rate of the full screen: of about 360,000 compounds, about 16,000 (4.4%) were called active. Roughly 9% stayed inconclusive and do not appear here. Calls come from the whole dose curve; as a rule, active = well fitted inhibition curve with a large enough effect; inconclusive = small, poorly fitted or top-dose-only effect; inactive = no such curve, though single readings can be large or run the other way. Shown is part of a subset that was picked to be rich in actives.
Write down one outcome, taken from Y (active), N (inactive)

Solved entries (count: 8):
INSERT INTO measurements (molecule, group_label) VALUES
  ('N#C/C(=C/c1cccc([N+](=O)[O-])c1)c1nnc2n1CCCCC2', 'N'),
  ('Cc1cc(O)c(C(c2ccccc2)N2CCN(c3ccccc3F)CC2)c(=O)n1Cc1ccco1 (stereo not drawn)', 'N'),
  ('COc1ccc2c(c1OC)C(=O)N(c1ncn[nH]1)C2', 'Y'),
  ('Cc1cccc(C(=O)Nc2ccc(S(=O)(=O)N3CCCCC3c3cccnc3)cc2)c1 (stereo not drawn)', 'N'),
  ('N#C/C(=C(\O)CCl)c1nnc2n1CCCCC2', 'Y'),
  ('COc1ccc(C)cc1NC(=O)COCc1cc(-c2cccs2)on1', 'N'),
  ('COc1ccc2c(c1OC)C(=O)c1ccccc1C2=O', 'N'),
  ('O=C(Nc1nnc(CCOCCOCCc2nnc(NC(=O)c3ccco3)s2)s1)c1ccco1', 'N');

// query Fill in: this test's call for NNc1nc2c(Cl)cccc2s1 is ___
// result Y

// query Input CCOC(=O)c1oc2ccc(S(=O)(=O)n3nc(-c4ccccc4OC)cc3N)cc2c1C
// result N

// query Input CCn1c2ccccc2c2cc(NC(=O)COC(=O)c3ccccc3Br)ccc21
// result N

// query Input Cc1cccc(Nc2nc(C)nc(N)c2S(=O)(=O)c2ccccc2)c1
// result N

// query Input O=C(Nc1ccccc1)c1ccco1
// result N

// query Input Cc1cccc(-c2nnc(SCC(=O)N3CCCc4ccccc43)o2)c1
// result N

// query Input Cc1ccc(C(=O)N2c3ncnn3C3(CCCCC3)[C@@H]3CCCC[C@@H]32)cc1
// result N

// query Input CCOc1ccc(N(C)Cc2cc(=O)oc3ccc(OC)cc23)cc1
// result Y

// query Input COc1cccc(CNC(=O)CCc2nc(-c3ccc(C)cc3)no2)c1
// result N

====

biological target: Bromodomain adjacent to zinc finger domain protein 2B (Homo sapiens) (UniProt Q9UIF8); assay: qHTS Assay for Inhibitors of BAZ2B; conditions: AlphaScreen BAZ2B-H3K14Ac peptide displacement; series mostly up to 114 µM; note: nearly all actives have a fitted effect of over 60% in size
About 16,000 (4.4%) of roughly 360,000 compounds were called active. Another 9% or so got no clear call; they are omitted. Calls follow the shape of the dose curve; as a rule, active = well fitted inhibition curve with a large enough effect; inconclusive = small, poorly fitted or top-dose-only effect; inactive = no such curve, though single readings can be large or run the other way. What follows is part of a selection rich in actives, with near analogues and random picks from the rest.
Write down one outcome, taken from active, inactive

Solved entries (count: 5):
INSERT INTO assay_data (smiles, group_label) VALUES
  ('Cc1ccc(N/C=C/C(=O)c2ccccc2)cc1C', 'inactive'),
  ('CCOC(=O)N1CCc2c(sc(NCc3cccc(F)c3)c2C(=O)Nc2ccccc2OCC)C1', 'inactive'),
  ('C/C(=C\C(=O)c1cccnc1)Nc1ccc(C)c(C)c1', 'active'),
  ('COc1ccnc(Oc2ccccc2)c1-c1ncn[nH]1', 'inactive'),
  ('Cc1ccc(NC(=O)COc2ccc(/C=N\NC(=O)c3cccnc3)cc2)cc1C', 'active');

// query Fill in: this test's call for CN1CCN(CCCCOc2cccc3ccccc23)CC1 is ___
// result inactive

// query Input O=C(COc1ccc(/C=N/NC(=O)c2ccc(O)cc2)cc1)Nc1ccc([N+](=O)[O-])cc1
// result inactive

// query Input Cc1ccc(C)c(Cn2c(=O)n(CCC(=O)NCc3ccc4c(c3)OCO4)c(=O)c3sccc32)c1
// result inactive

// query Input Cc1cccc(NC(=O)CSc2nc3c([nH]c4ccccc43)c(=O)n2-c2cc(C)cc(C)c2)c1
// result inactive

// query Input Cc1cc2nc(-c3ccc(NC(=O)c4cccnc4)cc3)oc2cc1C
// result inactive

====

target: Bromodomain adjacent to zinc finger domain protein 2B (Homo sapiens) (UniProt Q9UIF8); assay: qHTS Assay for Inhibitors of BAZ2B; details: AlphaScreen BAZ2B-H3K14Ac peptide displacement; series mostly up to 114 µM; note: nearly all actives have a fitted effect of over 60% in size
About 16,000 (4.4%) of roughly 360,000 compounds were called active. Inconclusive results (about 9%) are left out. Calls come from the whole dose curve; as a rule, active = well fitted inhibition curve with a large enough effect; inconclusive = small, poorly fitted or top-dose-only effect; inactive = no such curve, though single readings can be large or run the other way. This excerpt belongs to a sample that is enriched for actives.
Write down one outcome, taken from true (active), false (inactive)

Solved entries (count: 5):
INSERT INTO assay_data (molecule, group_label) VALUES
  ('Cc1cccc(C(=O)Nc2ccc(-c3nc4ccccc4s3)c(C)c2)c1', 'false'),
  ('CCC1=NN2C(=N)/C(=C/c3cc(C)n(-c4ccccc4)c3C)C(=O)N=C2S1', 'false'),
  ('Cc1ccc(OCCSc2nc3ccc(NC(=O)COc4ccc(C)cc4)cc3s2)cc1', 'false'),
  ('O=C(CSc1oc(-c2ccco2)nc1S(=O)(=O)c1ccc(Cl)cc1)c1ccccc1', 'false'),
  ('Cc1cs/c(=N\N=C\c2ccc(O)cc2)n1Cc1ccco1', 'true');

// query Fill in: this test's call for COc1cccc(OC)c1C(=O)NC(=S)NCc1ccco1 is ___
// result true

// query Input Cc1ccc(NC(=O)c2oc3ccc(S(=O)(=O)N4CCCCC4)cc3c2C)cc1Cl
// result false

// query Input O=C(Nc1ccc(Br)cc1)c1ccc(Br)c(S(=O)(=O)NCc2ccccc2)c1
// result false

// query Input CN(c1ccccc1)c1ccc(/C=c2\s/c(=C(/C#N)C(=O)C(C)(C)C)n(Cc3ccco3)c2=O)cc1
// result false

// query Input Cc1ccc(C)n1-c1nnc(N2CCC(C(=O)NCc3ccccc3Cl)CC2)s1
// result false

// query Input COc1ccccc1CNc1ccc(-c2nc(-c3ccccc3C)no2)cc1[N+](=O)[O-]
// result false

// query Input N#Cc1nc(-c2ccc(OCc3ccccc3)cc2)oc1NCCCN1CCOCC1
// result true

// query Input COc1ccc(NC(=O)CSc2nnc(-c3cccs3)n2Cc2ccco2)cc1OC
// result false

====

target: Bromodomain adjacent to zinc finger domain protein 2B (Homo sapiens); assay: qHTS Assay for Inhibitors of BAZ2B; conditions: AlphaScreen BAZ2B-H3K14Ac peptide displacement; series mostly up to 114 µM; note: nearly all actives have a fitted effect of over 60% in size
Out of some 360,000 compounds screened, about 16,000 (4.4%) were called active. About 9% were inconclusive and are not listed. The call rests on the fitted dose curve; in most records, active means well fitted inhibition curve with a large enough effect; inconclusive means small, poorly fitted or top-dose-only effect; inactive means no such curve, though single readings can be large or run the other way. What follows is part of a selection rich in actives, with near analogues and random picks from the rest.
Write down one outcome, taken from active, inactive

Solved entries (count: 5):
INSERT INTO results (molecule, group_label) VALUES
  ('CN1/C(=c2/s/c(=C3/C(=O)N(c4ccccc4)NC3=Nc3ccccc3)n(C)c2=O)C(C)(C)c2ccccc21', 'active'),
  ('O=C(CSc1nccn1-c1ccc(F)cc1)Nc1cccc2ccccc12', 'active'),
  ('COc1ccc(-c2nc3c(c(SCC(=O)Nc4ccc(C(=O)O)cc4)n2)Cc2ccccc2O3)cc1', 'active'),
  ('Cc1ccc(S(=O)(=O)Nc2nc3ccccc3nc2N2CCc3ccccc3C2)cc1', 'inactive'),
  ('COC(=O)c1cnn(-c2ccc(C(=O)Nc3ccc(OC(F)(F)F)cc3)cc2)c1N', 'inactive');

// query Fill in: this test's call for O=C(CSc1nc2c(c(=O)[nH]1)CN(Cc1ccc3c(c1)OCO3)CC2)Nc1cc(F)ccc1F is ___
// result inactive

// query Input CC(C)=C(NC(=O)c1ccccc1)C(=O)N/N=C(\C)c1ccccc1O
// result inactive

// query Input CCCNC(=O)C1CCC(Cn2c(=O)c3sccc3n(Cc3ccccc3F)c2=O)CC1 (stereo not drawn)
// result inactive

// query Input CN1OC(COC(=O)c2ccc(Cl)cc2)CC1c1ccccc1 (stereo not drawn)
// result inactive
